tested on: 349418-098-R-PDC spheroids, viability, % test/control; assay: Anticancer human tumor 349418-098-R-PDC patient-derived lung adenocarcinoma cell line growth inhibition [IpAb]; settings: second compound 0.1 µM; first compound 0.1 µM; spheroids with HUVEC and MSC; active means viability on the fitted dose curve at most 10% of control; inactive means the rest;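 further: spheroids exposed to compounds for 7 days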
Mark one answer only. Choices: t (active), f (inactive)

Illustrative cases are given below, each with its answer.
{"Molecule": "Cn1ncc(Cl)c1-c1cc(C(=O)NC(CN)Cc2cccc(F)c2)sc1Cl (stereo unspecified) + CCN1CCN(Cc2ccc(Nc3ncc(F)c(-c4cc(F)c5nc(C)n(C(C)C)c5c4)n3)nc2)CC1", "Group": "f"}
{"Molecule": "CCCS(=O)(=O)Nc1ccc(F)c(C(=O)c2c[nH]c3ncc(-c4ccc(Cl)cc4)cc23)c1F + CCN1CCN(Cc2ccc(Nc3ncc(F)c(-c4cc(F)c5nc(C)n(C(C)C)c5c4)n3)nc2)CC1", "Group": "f"}

I would be grateful if you could indicate the recorded call for COc1c(OCCCN2CCOCC2)ccc2c3n(c(=NC(=O)c4cnc(N)nc4)nc12)CCN3 + CCN1CCN(Cc2ccc(Nc3ncc(F)c(-c4cc(F)c5nc(C)n(C(C)C)c5c4)n3)nc2)CC1 .
t

I would be grateful if you could indicate the recorded call for Cn1ncnc1[C@H]1c2n[nH]c(=O)c3cc(F)cc(c23)N[C@@H]1c1ccc(F)cc1 + CC(C)NCC(C(=O)N1CCN(c2ncnc3c2C(C)CC3O)CC1)c1ccc(Cl)cc1 .
f

I would be grateful if you could indicate the recorded call for CC(C)n1nc(-c2ccc3oc(N)nc3c2)c2c(N)ncnc21 + CCN1CCN(Cc2ccc(Nc3ncc(F)c(-c4cc(F)c5nc(C)n(C(C)C)c5c4)n3)nc2)CC1 .
t

I would be grateful if you could indicate the recorded call for CC1(C)CCC(CN2CCN(c3ccc(C(=O)NS(=O)(=O)c4ccc(NCC5CCOCC5)c([N+](=O)[O-])c4)c(Oc4cnc5[nH]ccc5c4)c3)CC2)=C(c2ccc(Cl)cc2)C1 + CCN1CCN(Cc2ccc(Nc3ncc(F)c(-c4cc(F)c5nc(C)n(C(C)C)c5c4)n3)nc2)CC1 .
f
